Assay: Pharmacokinetic study in rats after oral administration of Semen Cuscutae extract (HPLC-MS/MS of plasma)
Type: in vivo, Sprague–Dawley rats
Details: male, Sprague-Dawley, rat, plasma, po, 13 g/kg, oral Semen Cuscutae extract 13 g/kg, n = 6
Endpoint: half-life

# half-life of O=C(/C=C/c1ccc(O)c(O)c1)O[C@@H]1C[C@](O)(C(=O)O)C[C@@H](O)[C@H]1O = < 90 min

Input O=C(O)/C=C/c1ccc(O)c(O)c1 . Output half-life: > 450 min

Short answer for C[C@@H]1O[C@@H](OC[C@H]2O[C@@H](Oc3c(-c4ccc(O)c(O)c4)oc4cc(O)cc(O)c4c3=O)[C@H](O)[C@@H](O)[C@@H]2O)[C@H](O)[C@H](O)[C@H]1O : half-life was > 450 min

Given item COc1cc(-c2oc3cc(O)cc(O)c3c(=O)c2O[C@@H]2O[C@H](CO)[C@@H](O)[C@H](O)[C@H]2O)ccc1O [Isorhamnetin-3-O-glucoside] , the value recorded as its half-life is < 90 min
